// provenance: paper PMC11513924

measured-on: PfFNT G107S (Plasmodium falciparum, UniProt O77389, G107S)
Construct: strain as for wild type, inferred from the shared method)
Sequence (O77389 whole entry G107S): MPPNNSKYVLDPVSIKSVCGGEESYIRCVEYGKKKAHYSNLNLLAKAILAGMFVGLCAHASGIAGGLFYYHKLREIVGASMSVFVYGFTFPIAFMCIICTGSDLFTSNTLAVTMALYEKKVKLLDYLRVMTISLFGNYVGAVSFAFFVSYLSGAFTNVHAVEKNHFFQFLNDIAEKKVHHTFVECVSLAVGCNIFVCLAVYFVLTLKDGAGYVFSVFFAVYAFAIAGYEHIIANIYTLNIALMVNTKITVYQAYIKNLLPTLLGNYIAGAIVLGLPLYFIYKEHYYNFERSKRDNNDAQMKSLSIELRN
experiment: Yeast-based 14C-lactate transport assay, PfFNT G107S resistance mutant
pIC50: −log10 of the molar value.
This section presents compounds with their documented pIC50 values.
readout-name: pIC50

>>> measured_result("CCCNc1ccc(C(=O)/C=C(\\O)C(F)(F)C(F)(F)F)cn1")
6.20
>>> measured_result("O=C(/C=C(\\O)C(F)(F)C(F)(F)F)c1cccc(O)c1")
5.17
>>> measured_result("CC(=O)Nc1ccc(C(=O)/C=C(\\O)C(F)(F)C(F)(F)F)cn1")
4.92
